Target: Cytochrome P450 3A4 (Homo sapiens) (UniProt P08684)
Sequence (P08684 whole entry, looked up): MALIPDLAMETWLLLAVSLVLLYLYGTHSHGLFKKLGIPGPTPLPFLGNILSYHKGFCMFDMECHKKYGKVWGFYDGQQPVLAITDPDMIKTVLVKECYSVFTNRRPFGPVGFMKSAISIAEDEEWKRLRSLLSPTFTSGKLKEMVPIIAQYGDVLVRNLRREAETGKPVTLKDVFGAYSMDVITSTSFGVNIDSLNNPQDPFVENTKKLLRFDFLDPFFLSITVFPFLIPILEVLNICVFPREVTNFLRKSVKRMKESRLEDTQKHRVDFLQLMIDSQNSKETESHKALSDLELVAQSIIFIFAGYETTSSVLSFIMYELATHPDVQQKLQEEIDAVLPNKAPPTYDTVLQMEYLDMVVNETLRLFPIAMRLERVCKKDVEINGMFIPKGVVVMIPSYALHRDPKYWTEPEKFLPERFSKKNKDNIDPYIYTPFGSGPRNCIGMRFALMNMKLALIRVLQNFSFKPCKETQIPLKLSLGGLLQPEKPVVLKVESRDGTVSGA
Experiment: Cytochrome panel assay with activity outcomes
Conditions: recombinant CYP, pro-luciferin dealkylation, luminescence, p450-cyp3a4; series mostly up to 57.1 µM
The campaign covered roughly 16,000 compounds. About 5,100 (32%) were called active. Inconclusive results (about 25%) are left out. Calls follow the shape of the dose curve; as a rule, active = well fitted curve in the direction sought with a large enough effect; inconclusive = small, poorly fitted or top-dose-only effect, or effect the other way; inactive = no such curve, though single readings can be large or run the other way. This is one part of the list.
Response enum: active, inactive

Example results:
{"compound": "CN(C)CCCN1CC(C(=O)O)CC1=O (stereo unspecified)", "group": "inactive"}
{"compound": "O=C(NCCCN1CCCCCC1)C1CC(=O)N(CCc2ccccc2)C1 (stereo unspecified)", "group": "inactive"}

### Prompt Outcome? Cc1ccc(S(=O)(=O)N(CC(=O)N2CCN(c3ccc(F)cc3)CC2)C2CCCCC2)cc1
### Response active

----------
Molecular target: Cytochrome P450 3A4 (Homo sapiens)
Experiment: Cytochrome panel assay with activity outcomes
Settings: recombinant CYP, pro-luciferin dealkylation, luminescence, p450-cyp3a4; series mostly up to 57.1 µM
The whole screen tested about 16,000 compounds, of which about 5,100 (32%) were called active. Another 25% or so got no clear call; they are omitted. Calls follow the shape of the dose curve; as a rule, active = well fitted curve in the direction sought with a large enough effect; inconclusive = small, poorly fitted or top-dose-only effect, or effect the other way; inactive = no such curve, though single readings can be large or run the other way. This is one part of the list.
Response enum: T = active, F = inactive

Example results:
{"compound": "CN(C)c1ccc(-c2nccc(Nc3ccc(F)cc3)n2)cc1", "group": "T"}
{"compound": "Cc1oc(-c2cccs2)[n+]([O-])c1C", "group": "F"}
{"compound": "COc1ccc(NC(=O)N2CCCC3(CCN(C(=O)c4ccco4)CC3)C2)cc1", "group": "T"}
{"compound": "O=C(CSCc1cccc(Cl)c1)NCc1ccc2c(c1)OCO2", "group": "T"}
{"compound": "CCOC(=O)C1=NOC(CNC(=O)C2=NOC(CNC(=O)c3c(-c4ccccc4Cl)noc3C)C2)C1 (stereo not drawn)", "group": "T"}
{"compound": "COc1ccc(NC(=O)N2CC[C@@]3(CCCNC3)C2)cc1", "group": "F"}
{"compound": "O=C1O[C@H](CN2CCOCC2)CN1/N=C\\c1ccc([N+](=O)[O-])o1", "group": "F"}
{"compound": "Cc1nnsc1SCC(=O)O", "group": "F"}

### Prompt Outcome? COc1ccc(NC(=O)N2CCCC3(CCNCC3)C2)cc1
### Response T

### Prompt Then COc1ccc(NC(=O)N2CC[C@@]3(CCCN(C(C)=O)C3)C2)cc1 ?
### Response F

### Prompt Then CCC(C)NC(=O)c1c(C)cc(=O)oc1C (stereo not drawn) ?
### Response F

### Prompt Then COCC(=O)N1CCC2(CC1)CN(C(=O)Nc1ccc(OC)cc1)C2 ?
### Response F

### Prompt Then N=C(C[C@@H](O)COc1ccccc1-c1ccccc1)N1CCCCC1 ?
### Response F

----------
Biological target: Cytochrome P450 3A4 (Homo sapiens) (UniProt P08684)
Test: Cytochrome panel assay with activity outcomes; as to activity, negative = inhibition: % is scaled to controls: 0 for no effect and ±100 for the full control effect
Conditions: recombinant CYP, pro-luciferin dealkylation, luminescence, p450-cyp3a4; series mostly up to 57.1 µM
The campaign covered roughly 16,000 compounds. About 5,100 (32%) were called active. Inconclusive results (about 25%) are left out. This is one part of the list.
recorded metric: activity, negative = inhibition

Below are worked cases with known answers.
{"structure smiles string": "O=C(NC(=S)Nc1nc(-c2ccc(Br)cc2)cs1)c1cccnc1", "activity, negative = inhibition": "-14.3% [at 2.29 µM] (inactive)"}
{"structure smiles string": "O=C(O)/C=C\\C(=O)Nc1ncn[nH]1", "activity, negative = inhibition": "-3.91% [at 11.4 µM] (inactive)"}

Now for another entry.
### Prompt Need activity, negative = inhibition of CCc1ncc(CO)n1Cc1cccc2ccccc12 , thanks.
### Response -11.4% [at 11.4 µM] (inactive)

Where these numbers come from: PubChem BioAssay AID1851
